Assay: qHTS assay to identify small molecule antagonists of the estrogen receptor alpha (ER-alpha) signaling pathway using the BG1 cell line in the presence of 0.1 nM 17-beta-estradiol - cell viability counter screen (AID 1259241); note: nearly all actives have a fitted effect of over 40% in size
Conditions: VM7Luc4E2 (BG1) viability, CellTiter-Fluor protease, 22 h, 0.1 nM estradiol agonist added; series mostly up to 92.4 µM
Inconclusive results are not listed. Active and inactive are the calls of the source. Calls come from the whole dose curve; as a rule, active = well fitted cell-killing curve with a large enough effect in the repeat runs; inconclusive = weak or mixed curves, or effect the other way; inactive = flat fitted curve, though single readings scatter.
Response enum: Yes = active, No = inactive

Consider the worked cases shown below.
# Sample Smiles, Class Assignment
measured = [
    ("O=C1NCN(c2ccccc2)C12CCN(CCCC(c1ccc(F)cc1)c1ccc(F)cc1)CC2", "Yes"),
    ("Cc1c(C(=O)O)cccc1[N+](=O)[O-]", "No"),
    ("C/C=C/c1ccc(OC)c(OC)c1", "No"),
    ("Clc1cccnc1", "No"),
    ("Cc1cn[nH]c1", "No"),
]

Now consider a different compound.
Qu. Which result was noted for this compound in the test: "ClC/C=C\CCl"
Ans. No

====

Target: Glucocorticoid receptor (Homo sapiens)
Experiment: qHTS assay to identify small molecule antagonists of the glucocorticoid receptor (GR) signaling pathway (AID 720692)
Details: GR-bla HeLa, beta-lactamase FRET ratio, dexamethasone-stimulated, 18 h; series mostly up to 58.5 µM
Records with an inconclusive call do not appear. Calls of active or inactive are those of the source. Calls come from the whole dose curve; as a rule, active = well fitted inhibition curve with a large enough effect in the signal ratio in the repeat runs (not every such curve was filed as active); inconclusive = weak or mixed curves, or effect the other way; inactive = no such curve, though single readings can be large or run the other way; the % refers to the signal ratio.
Response enum: y for active, n for inactive

Qu. Which result was noted for this molecule in the test: "C=CC(=C)CCC=C(C)C"
Ans. n

Qu. Which result was noted for this molecule in the test: "CSc1c(Cl)c(Cl)c(Cl)c(Cl)c1Cl"
Ans. n

Qu. Which result was noted for this molecule in the test: "O=Cc1ccc(F)cc1"
Ans. n

Qu. Which result was noted for this molecule in the test: "C/C=C/C(=O)Oc1c(CCCCCC(C)C)cc([N+](=O)[O-])cc1[N+](=O)[O-]"
Ans. y

Qu. Which result was noted for this molecule in the test: "Cc1cccc(Br)c1"
Ans. n

Qu. Which result was noted for this molecule in the test: "CCCCCCCCCCCCCCCC"
Ans. n

Qu. Which result was noted for this molecule in the test: O=C1OC(OC(=O)c2cccnc2Nc2cccc(C(F)(F)F)c2)c2ccccc21 (centres undefined)
Ans. n

Qu. Which result was noted for this molecule in the test: "Nc1cc(Cl)c([N+](=O)[O-])cc1O"
Ans. n

Qu. Which result was noted for this molecule in the test: "CNC(=S)NN"
Ans. n

Qu. Which result was noted for this molecule in the test: COC(=O)CC(C)CCC=C(C)C (centres undefined)
Ans. n

Qu. Which result was noted for this molecule in the test: "Oc1ccc(-c2ccccc2)c(Cl)c1"
Ans. n

Qu. Which result was noted for this molecule in the test: "C[C@]12CC[C@H]3C(=CCc4cc(O)ccc43)[C@@H]1CCC2=O"
Ans. y

Qu. Which result was noted for this molecule in the test: "CN(Cc1cc(Br)cc(Br)c1N)C1CCCCC1"
Ans. n

Qu. Which result was noted for this molecule in the test: "O=C(c1ccccc1)c1cc(Cl)ccc1O"
Ans. n

Qu. Which result was noted for this molecule in the test: "CC1(C)C(=O)N(Br)C(=O)N1Br"
Ans. n

====

Assay: qHTS RealTime-Glo MT Cell Viability Assay in HepG2 cells - 40 hour (AID 1224870); note: nearly all actives have a fitted effect of over 50% in size
Conditions: RealTime-Glo luminescence; series mostly up to 76.8 µM
Records with an inconclusive call do not appear. The source made the active and inactive calls. Calls come from the whole dose curve; as a rule, active = well fitted cell-killing curve with a large enough effect in the repeat runs; inconclusive = weak or mixed curves, or effect the other way; inactive = flat fitted curve, though single readings scatter.
Response enum: active, inactive

# Molecule, Class Assignment
records = [
    ("Clc1ccccc1CN1CCc2sccc2C1", "inactive"),
    ("Cc1c(C)n(Cc2ccccc2)c2ccc(C(=O)OCCN(C)C)cc12", "active"),
    ("c1cc2c3c(c1)ccc1cccc(c13)C2", "inactive"),
    ("Clc1ccc(C(c2ccccc2Cl)C(Cl)Cl)cc1 (stereo unspecified)", "inactive"),
    ("CCc1c(C(=O)O)c(=O)cnn1-c1ccc(Cl)cc1", "inactive"),
]

Now consider a different molecule.
Qu. Which result was noted for this molecule in the test: CN1[C@@H]2CC[C@H]1CC(OC(=O)C(CO)c1ccccc1)C2 (stereo partly specified)
Ans. inactive

====

Target: Aromatase (Homo sapiens)
Assay: qHTS assay to identify aromatase inhibitors (AID 743083); note: nearly all actives have a fitted effect of over 55% in size; note: potency is the fitted concentration of half-maximal effect
Settings: MCF-7 aro ERE, testosterone-driven ERE luciferase, 24 h; series mostly up to 70.3 µM
Inconclusive results are not listed. Activity calls are given as the source filed them. Calls come from the whole dose curve; as a rule, active = well fitted inhibition curve with a large enough effect in the repeat runs; inconclusive = weak or mixed curves; inactive = no such curve, though single readings can be large or run the other way.
Measured Endpoint: Potency

Record excerpt, results attached:
# Compound, Potency
rows = [
    ("COc1cccc(CCc2ccccc2OCC(CN(C)C)OC(=O)CCC(=O)O)c1 (stereo not drawn)", "inactive"),
    ("CC(C)c1cccc(C(C)C)c1N1C(=O)c2ccc(O)cc2C1=O", "54.5 µM (active)"),
    ("C[C@]12CC[C@H]3C(=CCc4cc(O)ccc43)[C@@H]1CCC2=O", "inactive"),
    ("CCCSS/C(CCO)=C(\\C)N(C=O)Cc1cnc(C)nc1N", "26.6 µM (active)"),
    ("CC=O", "5.08 µM (active)"),
    ("Clc1ccccc1CN1CCc2sccc2C1", "inactive"),
    ("O=C(Nc1ccc(Cl)cc1)Nc1ccc(Cl)c(C(F)(F)F)c1", "10.6 µM (active)"),
    ("COc1cc(C(=O)NS(=O)(=O)c2ccccc2C)ccc1Cc1cn(C)c2ccc(NC(=O)OC3CCCC3)cc12", "inactive"),
]

For each listed entry, give its Potency.
1. Cc1cccc(Br)c1
2. Nc1ncnc2c1ncn2[C@@H]1O[C@H](COP(=O)(O)O)[C@@H](O)[C@H]1O

Ans.
1: inactive; 2: inactive

For each listed entry, give its Potency.
1. CCCCCCCC/C=C/CCCOC(C)=O
2. Cc1occc1SSc1ccoc1C
3. CCCCOC(=O)C(C)CC (stereo not drawn)

Ans.
["inactive", "30.6 µM (active)", "inactive"]

====

Assay: qHTS assay to identify small molecule that activate the aryl hydrocarbon receptor (AhR) signaling pathway - cell viability counter screen (AID 743086); note: nearly all actives have a fitted effect of over 45% in size
Conditions: HepG2-AhR-luc viability, CellTiter-Fluor, 24 h; series mostly up to 70.3 µM
Description: U.S. Tox21 Program National Center for Advancing Translational Sciences [NCATS] NIH Chemical Genomics Center [NCGC] U.S. Environmental Protection Agency [EPA] National Institutes of Environmental Health Sciences [NIEHS] National Toxicology Program [NTP] U.S. Food and Drug Administration [FDA] Tox21 Assay overview: The Aryl hydrocarbon Receptor (AhR), a member of the family of basic helix-loop-helix transcription factors, is crucial to adaptive responses to environmental changes. […]
Records with an inconclusive call do not appear. Calls of active or inactive are those of the source. The call rests on the fitted dose curve; in most records, active means well fitted cell-killing curve with a large enough effect in the repeat runs; inconclusive means weak or mixed curves, or effect the other way; inactive means flat fitted curve, though single readings scatter.
Response enum: YES for active, NO for inactive

Consider the worked cases shown below.
# Sample Smiles, Class Assignment
records = [
    ("CCO[Si](CCCSSSSCCC[Si](OCC)(OCC)OCC)(OCC)OCC", "NO"),
    ("CCCCCCCCCCCC(=O)N(CC)CC", "NO"),
    ("Oc1ccc(-c2ccc(O)cc2)cc1", "NO"),
    ("C[Si](C)(C)Cl", "NO"),
    ("CSc1c(Cl)c(Cl)c(Cl)c(Cl)c1Cl", "NO"),
]

Qu. Which result was noted for this compound in the test: "CCCCCCCCCCCCCCCC"
Ans. NO

Qu. Which result was noted for this compound in the test: "CCCCCCCOC(=O)c1ccc(O)cc1"
Ans. NO

====

Experiment: qHTS RealTime-Glo MT Cell Viability Assay in HEK293 cells - 16 hour (AID 1224872); note: nearly all actives have a fitted effect of over 50% in size
Details: RealTime-Glo luminescence; series mostly up to 76.8 µM
Inconclusive results are not listed. Active and inactive are the calls of the source. Calls follow the shape of the dose curve; as a rule, active = well fitted cell-killing curve with a large enough effect in the repeat runs; inconclusive = weak or mixed curves, or effect the other way; inactive = flat fitted curve, though single readings scatter.
Response enum: active, inactive

# Compound, Class Assignment
data = [
    ("C#CC(O)CCC (stereo not drawn)", "inactive"),
    ("O=C(O)Cc1ccc(OCCNC[C@H](O)c2ccccc2)cc1", "inactive"),
]

Qu. Which result was noted for this compound in the test: "C=C(C)CCCC"
Ans. inactive

Qu. Which result was noted for this compound in the test: "CCO[Si](CCCSSSSCCC[Si](OCC)(OCC)OCC)(OCC)OCC"
Ans. inactive

Qu. Which result was noted for this compound in the test: "OCCCCl"
Ans. inactive

Qu. Which result was noted for this compound in the test: "C=CC(=O)OCCN(CC)CC"
Ans. inactive

Qu. Which result was noted for this compound in the test: "CCN(CC)CCOC(=O)C1(C2CCCCC2)CCCCC1"
Ans. active

Qu. Which result was noted for this compound in the test: "COc1nccnc1CC(C)C"
Ans. inactive

====

Assay: qHTS assay to identify small molecule that activate the aryl hydrocarbon receptor (AhR) signaling pathway - cell viability counter screen (AID 743086); note: nearly all actives have a fitted effect of over 45% in size
Details: HepG2-AhR-luc viability, CellTiter-Fluor, 24 h; series mostly up to 70.3 µM
Records with an inconclusive call do not appear. Active and inactive are the calls of the source. The call rests on the fitted dose curve; in most records, active means well fitted cell-killing curve with a large enough effect in the repeat runs; inconclusive means weak or mixed curves, or effect the other way; inactive means flat fitted curve, though single readings scatter.
Response enum: t = active, f = inactive

Consider the worked cases shown below.
# Compound, Class Assignment
data = [
    ("COCC(=O)O[C@]1(CCN(C)CCCc2nc3ccccc3[nH]2)CCc2cc(F)ccc2[C@@H]1C(C)C", "t"),
    ("Cc1oc(-c2ccccc2)nc1CCOc1ccc(C[C@H](Nc2ccccc2C(=O)c2ccccc2)C(=O)O)cc1", "t"),
    ("CCCCCCC(C)OC(=O)COc1nc(F)c(Cl)c(N)c1Cl (stereo not given)", "f"),
    ("SCCCCCCCCS", "f"),
    ("O=C1C=CC(=O)N1c1ccccc1", "t"),
    ("C/C=C/C=N/NC(=O)c1ccncc1", "f"),
    ("CCN(CC)CCOc1ccc(C(O)(Cc2ccc(Cl)cc2)c2ccc(C)cc2)cc1 (stereo not given)", "t"),
    ("C=CC(=O)OCCC#N", "f"),
]

Qu. Which result was noted for this compound in the test: "CCN(CC)CCOC(=O)C1(C2CCCCC2)CCCCC1"
Ans. f

Qu. Which result was noted for this compound in the test: CCNc1nc(NC(C)CC)nc(OC)n1 (stereo not given)
Ans. f

Qu. Which result was noted for this compound in the test: "c1ccc(Sc2ccccc2)cc1"
Ans. f

Qu. Which result was noted for this compound in the test: "CNC(=S)NN"
Ans. t

Qu. Which result was noted for this compound in the test: "CCOC(=O)C1=C(C)NC(C)=C(C(=O)OCC)C1c1ccccc1/C=C/C(=O)OC(C)(C)C"
Ans. f

Qu. Which result was noted for this compound in the test: "C=CC(=O)OCCOCC(CC)(COCCOC(=O)C=C)COCCOC(=O)C=C"
Ans. t

Qu. Which result was noted for this compound in the test: "CC(=O)Nc1ccc(O)cc1"
Ans. f

Qu. Which result was noted for this compound in the test: "Cc1ccc2ccc3cccc4ccc1c2c34"
Ans. f

Qu. Which result was noted for this compound in the test: "CCCSS/C(CCO)=C(\C)N(C=O)Cc1cnc(C)nc1N"
Ans. f

Qu. Which result was noted for this compound in the test: "S=C(SSSSSSC(=S)N1CCCCC1)N1CCCCC1"
Ans. t

Qu. Which result was noted for this compound in the test: "CC(C)(C)CC(C)(C)c1ccccc1O"
Ans. f

Qu. Which result was noted for this compound in the test: "CC(=O)Oc1ccc(C2(c3ccc(OC(C)=O)cc3)C(=O)Nc3ccccc32)cc1"
Ans. f

Values were extracted from PubChem BioAssay (Tox21).
